Biological target: T1, Human recombinant soluble TWEAK (Example 6) (human, UniProt O43508 99-249, limits assumed)
T1 sequence: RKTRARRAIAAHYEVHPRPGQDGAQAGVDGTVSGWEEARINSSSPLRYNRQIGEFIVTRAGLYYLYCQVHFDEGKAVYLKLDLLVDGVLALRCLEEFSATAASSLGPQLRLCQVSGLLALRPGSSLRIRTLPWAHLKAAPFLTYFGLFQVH
Experiment: cell-based or functional assay
Task for the reader: assign each of the following binders its reported Inhibition of IL8-Secretion [ng/ml] (A375 cells).
Reply with a number, then the unit it belongs to.

Look over these answered cases.
Humanized <TWEAK> 305- antibody 27 (antibody, V domains shown) VH: QVQLVQSGAEVKKPGSSVKVSCKASGFDFSTYYMSWVRQAPGQGLEWMGTVYVRQGTTYYASWLNGRVTITADESTSTAYMELSSLRSEDTAVYYCARGGYNYDDAFVIWGQGTLVTVSS VL: DIQMTQSPSSVSASVGDRVTITCQASQNIYSNLAWYQQKPGKAPKLLIYTASYLASGVPSRFSGSGSGTDYTLTISSLQPEDFATYYCQTAYYNSRPDTVAFGGGTKVEIK    197 ng/mL
Humanized <TWEAK> 305- antibody 32 (antibody, V domains shown) VH: EVQLLESGGGLVQPGGSLRLSCAASGFDFSTYYMSWVRQAPGKGLEWVSTVYVRQGTTYYASWLNGRFTISRDNSKNTLDLQMNSLRAEDTAVYYCAKGGYNYDDAFVIWGQGTLVTVSS VL: DIQMTQSPSTLSASVGDRVTITCQASQNIYSNLAWYQQKPGKAPKLLIYTASYLASGVPSRFSGSGSGTEFTLTISSLQPDDFATYYCQTAYYNSRPDTVAFGGGTKVEIK    134 ng/mL
Humanized <TWEAK> 305- antibody 28 (antibody, V domains shown) VH: EVQLLESGGGLVQPGGSLTLSCAASGFDFSTYYMSWVRQAPGKGLEWVSTVYVRQGTTYYASWLNGRFTISRDNSKNTLYLQMNSLRAEDTAVYYCAKGGYNYDDAFVIWGQGTLVTVSS VL: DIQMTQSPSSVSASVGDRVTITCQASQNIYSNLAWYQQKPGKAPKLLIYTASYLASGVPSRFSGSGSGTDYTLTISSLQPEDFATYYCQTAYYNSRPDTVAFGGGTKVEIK    165 ng/mL
Humanized <TWEAK> 305- antibody 29 (antibody, V domains shown) VH: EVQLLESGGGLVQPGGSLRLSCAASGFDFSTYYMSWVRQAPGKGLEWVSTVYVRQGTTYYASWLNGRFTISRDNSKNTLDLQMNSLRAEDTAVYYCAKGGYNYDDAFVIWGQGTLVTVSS VL: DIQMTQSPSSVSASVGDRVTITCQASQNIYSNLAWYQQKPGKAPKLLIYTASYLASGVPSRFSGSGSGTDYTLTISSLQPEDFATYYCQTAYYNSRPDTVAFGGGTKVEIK    78 ng/mL
Humanized <TWEAK> 305- antibody 34 (antibody, V domains shown) VH: EVQLLESGGGLVQPGGSLRLSCAASGFDFSTYYMSWVRQAPGKGLEWVSTVYVRQGTTYYASWLNGRFTISRDNSKNTLYLQMNSLRAEDTAVYYCAKGGYNYDDAFVIWGQGTLVTVSS VL: AIRMTQSPSSFSASTGDRVTITCQASQNIYSNLAWYQQKPGKAPKLLIYTASYLASGVPSRFSGSGSGTDYTLTISCLQSEDFATYYCQTAYYNSRPDTVAFGGGTKVEIK    24 ng/mL
Humanized <TWEAK> 305- antibody 33 (antibody, V domains shown) VH: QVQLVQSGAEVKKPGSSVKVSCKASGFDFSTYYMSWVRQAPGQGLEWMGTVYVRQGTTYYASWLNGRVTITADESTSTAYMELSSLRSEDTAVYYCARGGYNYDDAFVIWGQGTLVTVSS VL: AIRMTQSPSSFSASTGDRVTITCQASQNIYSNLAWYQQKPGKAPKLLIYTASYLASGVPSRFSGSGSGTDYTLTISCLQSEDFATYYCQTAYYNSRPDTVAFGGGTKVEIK    26 ng/mL
Humanized <TWEAK> 305- antibody 30 (antibody, V domains shown) VH: EVQLLESGGGLVQPGGSLRLSCAASGFDFSTYYMSWVRQAPGKGLEWVSTVYVRQGTTYYASWLNGRFTISRDNSKNTLYLQMNSLTAEDTAVYYCAKGGYNYDDAFVIWGQGTLVTVSS VL: DIQMTQSPSSVSASVGDRVTITCQASQNIYSNLAWYQQKPGKAPKLLIYTASYLASGVPSRFSGSGSGTDFTLTISSLQPEDFATYYCQTAYYNSRPDTVAFGGGTKVEIK    207 ng/mL

Alright, here's another binder for you.
Query (binder): Humanized <TWEAK> 305- antibody 31 (antibody, V domains shown) VH: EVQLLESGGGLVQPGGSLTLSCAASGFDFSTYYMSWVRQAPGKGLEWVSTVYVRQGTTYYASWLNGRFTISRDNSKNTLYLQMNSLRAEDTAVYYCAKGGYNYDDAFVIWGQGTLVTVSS VL: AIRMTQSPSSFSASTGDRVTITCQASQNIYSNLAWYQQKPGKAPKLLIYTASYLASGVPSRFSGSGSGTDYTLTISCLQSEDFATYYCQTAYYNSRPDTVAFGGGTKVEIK ; field requested: Inhibition of IL8-Secretion [ng/ml] (A375 cells)
94 ng/mL
